# Species: Homo sapiens
# Test name: Selectivity for human SERT over human NET
Reported Ratio is given for each of the following molecules.
Test readout: Ratio

Molecule	Endpoint value
CN1C2C=C(c3c[nH]c4ccccc34)CC1CC2 (stereo unspecified)	54
CN1C2C=C(c3cccc4ccccc34)CC1CC2 (stereo unspecified)	94.4
CN1C2C=C(c3ccccc3-c3ccccc3)CC1CC2 (stereo unspecified)	3.8
CN1C2C=C(c3cccc(-c4ccccc4)c3)CC1CC2 (stereo unspecified)	34
CN1C2C=C(C3c4ccccc4-c4ccccc43)CC1CC2 (stereo unspecified)	120
CN1C2C=C(c3ccc4c(c3)Cc3ccccc3-4)CC1CC2 (stereo unspecified)	232

----------
# Species: Homo sapiens
# Test name: Selectivity for human SERT over human DAT
Reported Ratio is given for each of the following compounds.

Compound	Ratio
CN1C2C=C(c3c[nH]c4ccccc34)CC1CC2 (stereo unspecified)	8.3
CN1C2C=C(C3c4ccccc4-c4ccccc43)CC1CC2 (stereo unspecified)	13.6
CN1C2C=C(c3ccccc3-c3ccccc3)CC1CC2 (stereo unspecified)	5.4
CN1C2C=C(c3cccc4ccccc34)CC1CC2 (stereo unspecified)	11.6
CN1C2C=C(c3ccc4c(c3)Cc3ccccc3-4)CC1CC2 (stereo unspecified)	52.2
CN1C2C=C(c3cccc(-c4ccccc4)c3)CC1CC2 (stereo unspecified)	10.8
